FYI, the data here is from patent US20240270821A1.

Target system: human glucagon receptor (human) (UniProt P47871)
Sequence (P47871 26-477): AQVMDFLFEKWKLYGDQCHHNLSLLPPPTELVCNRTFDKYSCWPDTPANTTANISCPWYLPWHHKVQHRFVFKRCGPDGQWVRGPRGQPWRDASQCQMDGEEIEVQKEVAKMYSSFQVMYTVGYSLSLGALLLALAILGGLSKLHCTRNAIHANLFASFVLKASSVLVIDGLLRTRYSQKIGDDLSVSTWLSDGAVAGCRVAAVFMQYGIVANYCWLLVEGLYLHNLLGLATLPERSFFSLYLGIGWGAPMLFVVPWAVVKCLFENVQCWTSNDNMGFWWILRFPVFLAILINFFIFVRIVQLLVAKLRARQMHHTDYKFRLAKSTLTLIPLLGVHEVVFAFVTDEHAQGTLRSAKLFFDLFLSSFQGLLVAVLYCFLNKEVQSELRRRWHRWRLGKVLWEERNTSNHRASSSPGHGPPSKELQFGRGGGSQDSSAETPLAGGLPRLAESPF
Experimental details: cell-based or functional assay
Starred links: 1 amine or outer side, 2 acyl side, 3 side chain; linkers in the order of their positions; H or OH if unused. Non-standard residues stand in square brackets, D forms with d. Groups on a side chain read outwards from the residue. No end group written: not given here. *: point of attachment. C20 diacid = O=C(O)CCCCCCCCCCCCCCCCCCC(=O)*; γGlu = O=C(O)[C@H](CCC(=O)[*:2])N[*:1]; αMeL = CC(C)C[C@](C)(N)C(=O)O; AEEA = NCCOCCOCC(=O)O; Aib = CC(C)(N)C(=O)O
Property measured: cAMP Rel EC50 (1% HSA) (nM)
One number for each entry, in nM.

Please go through the list and note cAMP Rel EC50 (1% HSA) for each binder.
1. YXQGTXTSDXXIXLDXKAAXEFIEXLIEGGPSSGAPPPSGTEX (synthetic construct; SITE 2: note = 2-Aminoisobutyric Acid; SITE 6: note = alpha-methyl-2-fluoro-L-phenylalanine; SITE 10: note = 3-(4-Pyridyl)-L-alanine; SITE 11: note = alpha-methyl-L-serine; SITE 13: note = alpha-methyl-leucine; SITE 16: note = L-ornithine; SITE 17: note = Lysine is chemically mo) [Example 726]
2. Y[Aib]QGTFTSDYSK[αMeL]LDKK([AEEA-γGlu-C20 diacid])AQQAFIEYLIAGGPSSGAPPPSSE-NH2 [Example 322]
3. Y[Aib]QGTFTSDYSI[αMeL]LDKQAAK([AEEA-AEEA-γGlu-C20 diacid])AFVEWLLA[Aib]GPSSGEPPPSEG-NH2 [Example 317]
4. YXQGTFTSDXSQXLDXKAQXAFIEXLIAXGPSSGEPPPSGSEE (Non-natural residues; K acylated AEEA-γGlu-C18 diacid; C-terminal amide; synthetic construct; SITE 2: note = 2-Aminoisobutyric Acid; SITE 10: note = 3-(4-Pyridyl)-L-alanine; SITE 13: note = alpha-methyl-leucine; SITE 16: note = L-ornithine; SITE 17: note = Lysine is chemically modified through conjugation of the epsilon-amino group of the Lysine side chain with (2-[2-(2-) [Example 1099]
5. YXQGTXTSDXXIXLDXKAQXXFIEYLSEGGPSSGEPPPSGTE (synthetic construct; SITE 2: note = 2-Aminoisobutyric Acid; SITE 6: note = alpha-methyl-2-fluoro-L-phenylalanine; SITE 10: note = 3-(4-Pyridyl)-L-alanine; SITE 11: note = alpha-methyl-L-serine; SITE 13: note = alpha-methyl-leucine; SITE 16: note = L-ornithine; SITE 17: note = Lysine is chemically mo) [Example 530]

1. 226
2. 2620
3. 1500
4. 472
5. 1280

Please go through the list and note cAMP Rel EC50 (1% HSA) for each binder.
1. YXQGTXTSDXXIXLDXKAQXQFIEXLQEGGPSSGEPPPEGTE (synthetic construct; SITE 2: note = 2-Aminoisobutyric Acid; SITE 6: note = alpha-methyl-2-fluoro-L-phenylalanine; SITE 10: note = 3-(4-Pyridyl)-L-alanine; SITE 11: note = alpha-methyl-L-serine; SITE 13: note = alpha-methyl-leucine; SITE 16: note = L-ornithine; SITE 17: note = Lysine is chemically mo) [Example 528]
2. YXQGTXTSDXXIXLDXXAQXEFIEXLVEGGPSSGAPPPSGS (synthetic construct; SITE 2: note = 2-Aminoisobutyric Acid; SITE 6: note = alpha-methyl-2-fluoro-L-phenylalanine; SITE 10: note = 3-(4-Pyridyl)-L-alanine; SITE 11: note = alpha-methyl-L-serine; SITE 13: note = alpha-methyl-leucine; SITE 16: note = L-ornithine; SITE 17: note = Ornithine is chemically) [Example 1210]
3. YXQGTFTSDXSQXLDXKAQXAFIEXLLAGGPSSGAPPPSGSEEE (Lys acylated γGlu-C18 diacid; non-natural residues; C-amide; synthetic construct; SITE 2: note = 2-Aminoisobutyric Acid; SITE 10: note = 3-(4-Pyridyl)-L-alanine; SITE 13: note = alpha-methyl-leucine; SITE 16: note = L-ornithine; SITE 17: note = Lysine is chemically modified through conjugation of the epsilon-amino group of the Lysine side chain with D-Glutami) [Example 1082]
4. YXQGTFTSDXSQXLDXKAQXAFIEXLIEXGPSSGEPPPSGSEE (not fully specified; Aib, 4Pal, Orn, Me4Pal, αMeY; lipidated Lys; C-terminal amide; synthetic construct; SITE 2: note = 2-Aminoisobutyric Acid; SITE 10: note = 3-(4-Pyridyl)-L-alanine; SITE 13: note = alpha-methyl-leucine; SITE 16: note = L-ornithine; SITE 17: note = Lysine is chemically modified through conjugation of the epsilon-amino group of the Lysine side chain with D-Glutami) [Example 1103]
5. YXQGTFTSDXSQXLDKKAQXAFIEYLIEXGPSSGAPPPSGSEE (acylated Lys e-γGlu-e-C18 diacid; non-natural residues; C-terminal amide; synthetic construct; SITE 2: note = 2-Aminoisobutyric Acid; SITE 10: note = 3-(4-Pyridyl)-L-alanine; SITE 13: note = alpha-methyl-leucine; SITE 17: note = Lysine is chemically modified through conjugation of the epsilon-amino group of the Lysine side chain with D-Glutamic acid-(gamma-Glu)-D-Glutamic) [Example 931]

[474, 288, 1530, 1350, 2300]
